Please respond with reported apparent Kd for every item in the list.
Tested on: MS2 coat protein
Assay: apparent Kd, MS2 coat protein; higher = weaker binding; RNA-MaP array; FMN 200 µM where present
Settings: designed as: ON switch for flavin mononucleotide; no ligand
Report the figure in nM without appending any unit label.

Could you share which apparent Kd value was measured for `GCCUAUUCGUGCAGUUAAGGAGCUCAGGAUAUCGCAAUAACAUGAGGAUCACCCAUGUCCGAAUACGAGAAGGGAGGUCCGACG` ?
140

And for `CCGAGGCAAAUAAAACAUGAGGAUCACCCAUGUGAGUCUCAUGAGGAUAUGCAGGUCAAAGACUUGCAGAAGGCAUGGCUUCGG` ?
1190

And for `UUUUUUUUUAGAGGAUAUAUUGUGUGUUAUAUAAUAGAAGGCUAAACAUGUGACAUACACAUGAGGAUCACCCAUGUUUUGUUU` ?
31.6

And for `GCGAUUUUGUAAGGAUAUACACGAGUUUCAAGUGUAGAAGGUACUUACAUGAGGAUCACCCAUGUAUACUUGGAUAAUAGUCGC` ?
27.9

---

Please respond with reported apparent Kd for every item in the list.
Tested on: MS2 coat protein
Experiment: apparent Kd, MS2 coat protein; higher = weaker binding; RNA-MaP array; FMN 200 µM where present
Details: ligand present: flavin mononucleotide; designed as: OFF switch for flavin mononucleotide
Report the figure in nM without appending any unit label.

Could you share which apparent Kd value was measured for `CUUUUGUGAGGAUAUCAGUAGUAGAACAAUAGUACUACUACUGAGAAGGCACAUGAGGAUCACCCAUGUUUCUC` ?
302

And for `UACCGCCGCACGGACGCGUUGAGUCAGGAUAUACAUGAGGAUCACCCAUGUGAAGGCCGGCUCAUGUAGAAGGGACAAGCGUUG` ?
7.14

And for `GGGUGCUCACCGCCUUAACAUGAGGAUCACCCAUGUGGAGUGCAGGAUAUACGUUUCUAUCAUACGUAGAAGGGCACCGCGCAG` ?
5.03

And for `GGAGAUACAUGAGGAUCACCCAUGUAGGAUAUAUAGUAUAUAUAUAGCGAAAGCUAUAUAUAUAUAUAGAAGGGCGUACACACC` ?
8.02

And for `CGCAACAUACAGAAGGAGUAAAUUAGAAGUGUACUAGGAUAUGUAAACAUGAGGAUCACCCAUGUCGAAUGUGUUAUAGUUGCG` ?
8.53

And for `AACGUGUGAGGAUAUUAGUUGUACGUCAAUAGACGUAUAAGUGAGAAGGCACAUGAGGAUCACCCAUGUUCCUG` ?
195

And for `AUUAGUAUCUAGGAUAUCUAGUACAUAGUAUCUAGAGAAGGAGAUACAUGAGGAUCACCCAUGUUCUGUGAUCU` ?
44.4

And for `UUUUAACAUGAGGAUCACCCAUGUGAGGAUAUCGAAAUUUAUAUUAAUAUUAAUUAAUCGAGAAGGCACAUUUU` ?
113

And for `AUUUCGUCAGGAUAUCCUAGUAAUUGUUUCAUAUUUACGAUGGAGAAGGGACAUGAGGAUCACCCAUGUUGGUC` ?
169

And for `AUCGUUCGAGAGAAGGGAACAUGAGGAUCACCCAUGUUACCUCACCUGGUGACGGAACUCCAAGUUCAGGAUAUCUCGAGCAAU` ?
8.25

And for `GGUUGGCGAGGAUAUACAUGAGGAUCACCCAUGUGGUCCUGCGGUGGUCUCGCCCUUUGUAGAAGGCGCGGGUC` ?
30.6

And for `CGUAGUUGGUAAGGAUAUCCUACACUGUUCUGACCCGUGCAAGCUACAUGAGGAUCACCCAUGUGGGAGAAGGUGCGUCAACGC` ?
19.6

And for `AAACAUGUCCGAGGAUAUCUGAGAUCAUUUUCAAGAGAAGGCGGACAUGAGGAUCACCCAUGUCUCUCCUCAUCAACUCCAAAG` ?
35.6

And for `UCUGGUCGAGGAUAUGCAAUCGUGCUUCGGCACGUAAGAUCACAUGAGGAUCACCCAUGUAGAAGGCGACCAGA` ?
78.3

And for `GUCCGGAGGGAGAAGGGCUAGGAGGUCCAGCUUAUGUGUGUUGCAACAUGAGGAUCACCCAUGUAGCAGGAUAUCCCUUUUACA` ?
233

And for `GAGGUACGAGGAUAUACAUAGAUACAGACACAUGUUCAAGUACAUGAGGAUCACCCAUGUAGAAGGCGUAUAUC` ?
44.9

And for `UUUACUUACGAAGGAUAUGGUUACAUGAGGAUCACCCAUGUAUGUAUAUUGAUCUAGUAUUUUAACCAGAAGGUCGUGAUUUUU` ?
46.6

And for `GUUUGGAGUGGAGGAUAUGCGGACGAACGAUAAGCAGAAGGCCACAUGAGGAUCACCCAUGUCGGCUGUGCCGGGUGGUUGACG` ?
50.8

And for `AAAAUACAUGAGGAUCACCCAUGUUAGGAUAUCCAAGGUCUAACCCUCAGGGUUAGACGGAGAAGGGAUGUGGU` ?
61.6

And for `GAUUAACAUGAGGAUCACCCAUGUGAGGAUAUGAACUUGCCCACUUUCCCUUUAGAGUUUAGAAGGCGCAUUCU` ?
30.6

And for `ACGUAUCUAGGAUAUACGCUGGGUACUAUUCUCAAGUCAAGACAUGAGGAUCACCCAUGUAGAAGGAGAAGCAA` ?
98.4

And for `UUUAGUUCAGGAUAUGUAGAUUUUAACAUGAGGAUCACCCAUGUAGAUCCUGAAUUAACUACAGAAGGGAACAUUC` ?
44.2
